Consider the following compounds; for each one, report its IC50.
- tgt: TRPC5 (Homo sapiens)
- Construct: expressed in transfected cells; host or cells: HEK293 TREx cells, inducible TRPC5 expression, induced 20-48 hours
- Sequence (Q9UL62 whole entry): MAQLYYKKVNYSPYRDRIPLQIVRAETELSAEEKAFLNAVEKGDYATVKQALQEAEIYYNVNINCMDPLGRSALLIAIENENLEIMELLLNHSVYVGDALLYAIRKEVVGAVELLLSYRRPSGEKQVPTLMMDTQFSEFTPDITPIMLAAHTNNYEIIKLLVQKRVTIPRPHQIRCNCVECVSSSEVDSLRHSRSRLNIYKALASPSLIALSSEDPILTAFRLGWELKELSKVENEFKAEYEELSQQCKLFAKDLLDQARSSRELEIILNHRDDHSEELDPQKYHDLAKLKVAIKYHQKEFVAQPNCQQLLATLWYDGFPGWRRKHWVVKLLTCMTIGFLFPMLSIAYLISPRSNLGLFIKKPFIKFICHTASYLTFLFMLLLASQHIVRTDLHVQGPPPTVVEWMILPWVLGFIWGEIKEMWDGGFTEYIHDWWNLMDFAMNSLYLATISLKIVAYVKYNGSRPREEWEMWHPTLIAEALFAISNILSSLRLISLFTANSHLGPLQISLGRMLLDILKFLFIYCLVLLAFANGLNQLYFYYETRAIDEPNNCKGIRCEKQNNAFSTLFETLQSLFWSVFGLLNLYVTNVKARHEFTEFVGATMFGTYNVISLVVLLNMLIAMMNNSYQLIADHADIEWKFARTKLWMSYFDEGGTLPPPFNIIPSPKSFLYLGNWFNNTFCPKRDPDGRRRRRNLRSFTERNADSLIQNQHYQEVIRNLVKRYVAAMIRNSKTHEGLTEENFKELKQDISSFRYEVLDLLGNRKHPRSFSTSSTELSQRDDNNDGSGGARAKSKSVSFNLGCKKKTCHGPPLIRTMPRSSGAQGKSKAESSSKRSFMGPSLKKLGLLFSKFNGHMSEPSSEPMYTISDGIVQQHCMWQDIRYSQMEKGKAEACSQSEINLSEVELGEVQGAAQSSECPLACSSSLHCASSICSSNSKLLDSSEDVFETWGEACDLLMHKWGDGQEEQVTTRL
- protocol: Assay A: Determination of TRPC5-Inhibition (whole-cell patch clamp)
- Assay type: cell-based
- assay_setup: compounds of the present invention, TRPC5-expressing HEK293 TREx cells, LaCl3-activated current

## Task # assay system TRPC5 (Homo sapiens): give IC50 of CCn1c(=O)n(CCCO)c(=O)c2c1nc(-c1ccc(OC3CCCCC3)nc1C)n2Cc1ccc(F)cc1
## Result 403 pM

## Task Write down measured IC50 (TRPC5 (Homo sapiens)) for this compound. CCn1c(=O)n(CCCO)c(=O)c2c1nc(-c1ccc(OC3CCC3C)nc1C(F)(F)F)n2Cc1ccc(Cl)cc1 (stereo not shown)
## Result 150 pM

## Task Quote IC50 with test system TRPC5 (Homo sapiens) for CCC(C)n1c(=O)n(CCCO)c(=O)c2c1nc(-c1ccc(OC3CCC3)nc1C)n2Cc1ccccc1 (stereo not shown)
## Result 713 pM

## Task Quote TRPC5 (Homo sapiens) IC50 for entry Cc1nc(OC2CCC2)ccc1-c1nc2c(c(=O)n(CCCO)c(=O)n2C(C)C)n1Cc1ccccc1 .
## Result 426 pM

## Task # return IC50 of Cc1nc(OC2CCC2C)ccc1-c1nc2c(c(=O)n(CCCO)c(=O)n2C(C)C)n1Cc1ccc(F)cc1 (stereo not shown) (system: TRPC5 (Homo sapiens))
## Result < 32 pM

## Task Specify IC50 for CCn1c(=O)n(CCCO)c(=O)c2c1nc(-c1ccc(OC3CCCC3)nc1C)n2Cc1ccc(Cl)cc1 , system TRPC5 (Homo sapiens).
## Result 275 pM

## Task # assay system TRPC5 (Homo sapiens): give IC50 of Cc1nc(OC2CCCC2)ccc1-c1nc2c(c(=O)n(CCCO)c(=O)n2C(C)C)n1Cc1ccc(F)cc1
## Result < 100 pM

## Task Find the measured IC50 of CCn1c(=O)n(CCCO)c(=O)c2c1nc(-c1ccc(OC3CCC3(C)C)nc1C)n2Cc1ccc(F)cc1 (stereo not shown) with TRPC5 (Homo sapiens) as test system.
## Result 163 pM

## Task Jot down IC50 (TRPC5 (Homo sapiens)) of CCn1c(=O)n(CCCO)c(=O)c2c1nc(-c1ccc(OC3CCC3)nc1)n2Cc1ccc(Cl)cc1 .
## Result 873 pM

## Task Quote TRPC5 (Homo sapiens) IC50 for entry CCn1c(=O)n(CCCO)c(=O)c2c1nc(-c1ccc(O[C@H]3C[C@H](C)C3)nc1C)n2Cc1ccccc1 .
## Result 917 pM
